measurement_target: DR7 (DRB1*0701) (Homo sapiens, UniProt P01903+P01911, A100R/A102G/A103Q/D57E/D86V/E43K/F76Y/K127E/L162R/M171V/P40G/Q125H/Q99D/R33Q/R42Y/R54Q/S133A/S66F/T210M/V115G/Y107V/Y59L/Y89S)
protocol_description: biochemical
Format: binding
assay_readout: IC50 (nM)
Give just the number in nM; leave the unit off.

Problem: Please indicate IC50 recorded for CC[C@H](C)[C@H](NC(=O)[C@H](Cc1c[nH]cn1)NC(=O)[C@H](C)NC(=O)[C@H](Cc1ccc(O)cc1)NC(=O)[C@H](CC(C)C)NC(=O)[C@@H](NC(=O)[C@H](Cc1ccccc1)NC(=O)[C@@H]1CCCN1C(=O)[C@H](CCC(N)=O)NC(=O)[C@@H](NC(=O)[C@H](CC(C)C)NC(=O)[C@@H](NC(=O)[C@H](CCCCN)NC(=O)[C@@H](N)Cc1ccccc1)[C@@H](C)O)[C@@H](C)CC)[C@@H](C)CC)C(=O)N[C@@H](CCC(N)=O)C(=O)O [Peptide 89.0025]
Solution: 882

* * *

measurement_target: A*2902 (Homo sapiens, UniProt P04439, A270S/D101N/D185E/E176V/E277Q/E87Q/F33T/G231S/H175R/I121M/I218V/I322F/K168Q/L300P/L318F/M331R/P208A/P217A/Q86L/T323A/T345S/V100A/V358M)
protocol_description: biochemical
Type: binding
No end group written: not given here.
Consider the cut-off 40 nM. If the recorded IC50 is strictly smaller, the label is met; if not, the label is not met.

Problem: Check if IC50 falls below 40 nM for DTADQLIHLY [Peptide 9018.0021] .
Solution: met

Problem: Check if IC50 falls below 40 nM for YTPGPGTRY [Peptide 9015.0027] .
Solution: not met

Problem: Check if IC50 falls below 40 nM for WFDITNWLWY [Peptide 9015.0161] .
Solution: not met

Problem: Check if IC50 falls below 40 nM for LADQLIHLY [Peptide 9015.0038] .
Solution: not met

Problem: Check if IC50 falls below 40 nM for ITDDSDIAY [Peptide 1580.14] .
Solution: not met

---
Problem: Check if IC50 falls below 40 nM for ETWETWWMDY [Peptide 9015.0168] .
Solution: not met

Problem: Check if IC50 falls below 40 nM for NYLVKHHMY [Peptide 9018.0037] .
Solution: not met

Problem: Check if IC50 falls below 40 nM for DLADQLIHLY [Peptide 9015.0184] .
Solution: not met

Problem: Check if IC50 falls below 40 nM for NTLVKHHMY [Peptide 9018.0009] .
Solution: not met

Problem: Check if IC50 falls below 40 nM for KYCWNLLQY [Peptide 1595.08] .
Solution: not met

Problem: Check if IC50 falls below 40 nM for WKSLVKHHMY [Peptide 9015.0177] .
Solution: not met

Problem: Check if IC50 falls below 40 nM for HMDRELHPEY [Peptide 9018.0005] .
Solution: met

* * *

measurement_target: B*3501 (Homo sapiens, UniProt P01889, A329T/A93T/A95T/C349S/D201E/D98Y/E176V/E187L/E204Q/E69T/I218V/K202T/L119I/Q94N/R155S/R180L/S121R/S35A/S48A/T118I/V127L/V306I/V36M/Y140S/Y91F)
protocol_description: biochemical
Consider the cut-off 6 µM. If the recorded IC50 is strictly smaller, the label is 1.0; if not, the label is 0.0.

Reference set, count: 5
Problem: Check if IC50 falls below 6 µM for CC[C@H](C)[C@H](NC(=O)[C@H](CC(C)C)NC(=O)[C@H](CC(C)C)NC(=O)CNC(=O)[C@@H](NC(=O)[C@H](CCCCN)NC(=O)[C@@H]1CCCN1C(=O)[C@@H](N)CCSC)[C@@H](C)O)C(=O)N[C@H](C(=O)N[C@H](C(=O)O)C(C)C)[C@@H](C)CC .
Solution: 0.0

Problem: Check if IC50 falls below 6 µM for CC(C)C[C@H](NC(=O)[C@H](CC(=O)O)NC(=O)[C@@H]1CCCN1C(=O)[C@@H](N)Cc1ccccc1)C(=O)N[C@@H](CCC(=O)O)C(=O)N[C@@H](CO)C(=O)N[C@@H](CCC(=O)O)C(=O)N[C@@H](Cc1ccccc1)C(=O)N[C@@H](CCC(N)=O)C(=O)N[C@@H](C)C(=O)O .
Solution: 1.0

Problem: Check if IC50 falls below 6 µM for CC[C@H](C)[C@H](NC(=O)[C@H](CC(C)C)NC(=O)[C@H](C)NC(=O)[C@H](CCCNC(=N)N)NC(=O)[C@@H]1CCCN1C(=O)CN)C(=O)N[C@@H](CCC(=O)O)C(=O)N[C@H](C(=O)N[C@@H](CO)C(=O)N[C@@H](Cc1ccc(O)cc1)C(=O)O)[C@@H](C)O .
Solution: 0.0

Problem: Check if IC50 falls below 6 µM for CC(C)C[C@H](NC(=O)[C@@H](NC(=O)[C@H](Cc1c[nH]c2ccccc12)NC(=O)[C@H](CCC(=O)O)NC(=O)[C@H](Cc1c[nH]cn1)NC(=O)[C@H](CC(C)C)NC(=O)[C@@H]1CCCN1C(=O)[C@@H]1CCCN1C(=O)[C@@H](N)Cc1ccc(O)cc1)C(C)C)C(=O)O .
Solution: 1.0

Problem: Check if IC50 falls below 6 µM for CC(C)C[C@H](NC(=O)[C@@H](NC(=O)[C@H](CCC(=O)O)NC(=O)[C@H](CC(=O)O)NC(=O)[C@H](Cc1ccccc1)NC(=O)[C@@H]1CCCN1C(=O)[C@H](C)NC(=O)[C@@H]1CCCN1C(=O)[C@@H](N)CCC(=O)O)[C@@H](C)O)C(=O)O .
Solution: 1.0

From here, focus on the item given below.
Problem: Check if IC50 falls below 6 µM for CC(C)C[C@H](NC(=O)[C@H](CO)NC(=O)[C@H](CCCNC(=N)N)NC(=O)[C@H](CC(C)C)NC(=O)[C@H](CO)NC(=O)[C@H](C)NC(=O)[C@H](CC(C)C)NC(=O)[C@@H]1CCCN1C(=O)[C@@H](N)Cc1ccc(O)cc1)C(=O)N[C@@H](Cc1ccccc1)C(=O)O .
Solution: 1.0

* * *

measurement_target: HLA-A*0201 (HLA-A2.1) (Homo sapiens, UniProt P04439, D140Y/D185E/D98H/E176V/E277Q/G131W/G231S/I119V/I121R/I166T/I218V/L300P/L318F/N151K/N90K/P208A/P217A/Q86G/Q94H/R138H/R169H/T345S)
protocol_description: biochemical
Assay type: binding
No end group written: not given here.
Catalogue of pIC50 readings, one per entry.
In textbook form, pIC50 equals minus log to base ten of the concentration in mol/L.

Problem: Please indicate pIC50 recorded for FLSGCVISYV [Peptide 1578.32]
Solution: 7.37

Problem: Please indicate pIC50 recorded for WQRLLLTASV [Peptide 9013.0115]
Solution: 5.29

Problem: Please indicate pIC50 recorded for QLSNGNRTL [Peptide 9013.0050]
Solution: 4.79

Problem: Please indicate pIC50 recorded for SLQDSQFEL [Peptide 1578.35]
Solution: 6.85

Problem: Please indicate pIC50 recorded for TLQATPGPA [Peptide 9013.0028]
Solution: 4.71

Problem: Please indicate pIC50 recorded for RTLQLLLFV [Peptide 1525.25]
Solution: 8.33

Problem: Please indicate pIC50 recorded for LLIESTPFNVA [Peptide 9013.0268]
Solution: 6.92

Problem: Please indicate pIC50 recorded for GLFQQSTQEL [Peptide 9013.0176]
Solution: 5.87

Problem: Please indicate pIC50 recorded for SLNRSDPVTL [Peptide 9013.0233]
Solution: 4.79

Problem: Please indicate pIC50 recorded for YVSGANLNL [Peptide 9013.0100]
Solution: 5.21

---
Problem: Please indicate pIC50 recorded for LLFWNPPTTA [Peptide 9013.0123]
Solution: 7.60

* * *

measurement_target: DRB1*1302 (Homo sapiens, UniProt P01903+P01911, A100E/A169T/K41T/L162R/M171V/P40S/Q125H/Q178H/Q39Y/Q99D/R42S/S66N/T262R/V115G/W38E/Y61H)
protocol_description: biochemical
Assay type: binding
No end group written: not given here.
Consider the cut-off 600 nM. If the recorded IC50 is strictly smaller, the label is y; if not, the label is n.

Reference set, count: 4
Problem: Check if IC50 falls below 600 nM for RNLVDGNPISLDRKH [Peptide 89.0137] .
Solution: n

Problem: Check if IC50 falls below 600 nM for RHLDKKQRFHNIRGR [Peptide 1543.26] .
Solution: n

Problem: Check if IC50 falls below 600 nM for DSVDSVNCGVISAAA [Peptide 1601.24] .
Solution: n

Problem: Check if IC50 falls below 600 nM for VKFLRYQQIEFVSFL [Peptide 89.0052] .
Solution: y

---
Problem: Check if IC50 falls below 600 nM for GKSLFGMSLMKFLQG [Peptide 89.0019] .
Solution: n

Problem: Check if IC50 falls below 600 nM for LKVLIKQHSLYTHLQ [Peptide 89.0061] .
Solution: y

Problem: Check if IC50 falls below 600 nM for YDPLYCESVHNFTLP [Peptide 68.0041] .
Solution: n

Problem: Check if IC50 falls below 600 nM for NTEVETQQMVQVEEQ [Peptide 89.0039] .
Solution: n

Problem: Check if IC50 falls below 600 nM for TPEWIQRLTIIQHGI [Peptide 89.0030] .
Solution: y

Problem: Check if IC50 falls below 600 nM for LIKFFQGSVISFVNS [Peptide 89.0135] .
Solution: y

Problem: Check if IC50 falls below 600 nM for NGWFYVEAVVEKKTG [Peptide 90.0029] .
Solution: n
